assay: yeast display, Sf9 membrane polyspecificity reagent, FACS + sequencing; frameworks hold sequencing errors
readout.name: polyreactivity (PSR sort gate)

// below: answered sequences
>>> value_observed("KVQLVESGGGLVQAGGSLRLSCAASGLTFSFYAMGWYRQAPGKERELVAAITYSGDSTYYADSVKGRFTISRDNAKNTVYLQLNSLKPEDTAVYYCAAYVYQTPHSLHIYEYWGQGTQVTVSS")
"low polyreactivity"
>>> value_observed("QVQLVESGGGLVQAGGSLRLSCAASGRIFLRNAMGWSRQAPRKERELVAAISSSGGRTYYADSVKGRFTISRDNAKNTVYLQMNSLKPEDTAVYYCNARWHGSFDYWGQGTQVTVSS")
"low polyreactivity"
>>> value_observed("QVQLVESGGGLVQAGGSLRLSCAASGRIFRVNAMGWYRQAPGKDREFVAAITASSGRTSYADSVKGRFTISRDNAQNTVYLQMNSLKPEDTAVYYCNAAVSQFSHRWRRRITFDYWGQGTQVTVSS")
"low polyreactivity"
>>> value_observed("QVQLVESGGCLVQAGCSHRLSCAASGSTFGHNAMGWYRQAPGKERELVAAISWSGGRTSYADSVKGRFTISRDHAKNTVYLQLNSLKPEDTAVYYCAARSWRKGDYWGQGTQVTVSS")
"high polyreactivity"

Q. Could you share which polyreactivity (PSR sort gate) value was measured for `QVQLVESGGGLVQAGGSLRLSCAASGRTFTQYAMGWYRQAPGKERELVARISYSGGTTYYADSVKGRFTISRDNAKNTVYLQMNSLKPEDTAVYYCARDYYGSVRFDHWGQGTQVTVSS` ?
A. high polyreactivity

Q. Form field: reported polyreactivity (PSR sort gate) of `QVQLVESGGGLVQAGGSLRLRCAASGRIFRIYPMGWYRQAPGKERELVARITYSGGSTYYADSVKGRFTISRDNAKNTVYLQMNSLKPEDTAVYYCAADWLGYQYGYWGQGTQVTVSS`
A. low polyreactivity

###

test: yeast display, Sf9 membrane polyspecificity reagent, FACS + sequencing; frameworks hold sequencing errors
readout.name: polyreactivity (PSR sort gate)

The cases that follow already have their polyreactivity (PSR sort gate) on record.
>>> value_observed("QVQLVESGGGLVQAGGSLRLSCAASASIFYIYGIGWYRQAPGKERELVARISSGDRTNYADSVKGRFTISRDNAKNTVYLHMNSLKAEDTAVYYCNARVSYYLGRYYWGQGTQVTVSS")
"high polyreactivity"
>>> value_observed("QVQLVESGGGLVQAGGSLRLSCAASGFTFYYYTMGWYRQAPGKERELVAVITGGGGSTYYADSVKGRFTISRDNAKNTVYLQMNSLKPEDTAVYYCAAKFYGWYRQRGYDYWGQGTQVTVSS")
"high polyreactivity"
>>> value_observed("QDQLEESGGGLRQAGGSLRLTCAASGIIFPYYTKGLYRQATGKEKLVAAISSRGGSTYYADSVKGRFTISRDNAKNTVYLQMTSLKPEDTAVYYCAAKNVYHDDFWGQGTQVTVSS")
"high polyreactivity"
>>> value_observed("QVQLVESGGGLVQAGGSLRLSCAASGSTSSPNAMGRYRQAPGKEREFVAAISRSGGSTYYADSVKGRFTISRDNAKNTVYLQMNSLKPEETSVHYCAATVTVFYTRYYYWGQGTQVTVSS")
"high polyreactivity"
>>> value_observed("QVQLVESGVGLVQAGCSHRLSCAASGSTISAYDMGSYRQAPGKERELVAAITWIGGNTYYADSVKGRFTISRDNAKNTVYLQMNSLKPEDTAVYYCAAEEVPYDRDMDYWGQGTQVTVSS")
"low polyreactivity"

Q. What does the data say about its polyreactivity (PSR sort gate)? Entry: `QEQLQDSGGGLVQAGGSLRLSCAASGYISSLAAMGWYRQAPGKERDLVAGNDLGTITNYADSVKGRLTISRDNAKNNVYLQMNSLKPEDTEVYYCAKYRWYGVYWGQGTHVTVSS`
A. low polyreactivity

Q. Consider the sequence shown here: `QVQIVESGGGLVQAGGSLRLSCAASGSIIYRNAMGWYRQAPGKERELVAAIRTSSGSTYYAVSVKGRFTISRDNAKNTVYLQMNSLKPVDTAVYYCGAPRLYGYYSCGQGTQVTVSS` What is its recorded polyreactivity (PSR sort gate)?
A. low polyreactivity

Q. So what's the measured polyreactivity (PSR sort gate) for this one? `QVQLVESGGGLVQAGGSHRLSCAASGTTIDYYAMGWYRQAPGKERELVAAISWSGGSTYYADSVKGRFTFSRDNAKNTVYLQMNSLKPEDTAVYYCAADSAFYTGSDYGWSDYDYWGQGTQVTVSS`
A. low polyreactivity

Q. Reported polyreactivity (PSR sort gate), sequence `QVQLVESGGGLVQAGGSLRLSCAASGSTFWYYTMGWYRQAPGKERELVATISWRGGRTTYADSVKGRFTISRDNAKNTVYLQMNSLKPEDTAVYYCNAERFPGYGGPSRYLYQEYVYWGQGTQVTVSS` : ____
A. low polyreactivity

Q. Would you kindly share the measured polyreactivity (PSR sort gate) for `QVQLVESGGGLVQAGGSLRLSCAASGRIFYYYAMGWYRQAPGKEREFVADISARGGSTYYADSVKGRFTISRDTAKNTVYLQMNSLKPEDTAVYYCAATTGLYTRYGYWGQGTQVTVSS` ?
A. high polyreactivity

###

assay: yeast display, Sf9 membrane polyspecificity reagent, FACS + sequencing; frameworks hold sequencing errors
readout.name: polyreactivity (PSR sort gate)

>>> value_observed("QVQLVESGGGLFQAGGSLRLSCAASGRTFRSYAMGWYRQAPGKERELVAAISTGGSTYYADSVKGRFTISRDNAKNTVYLQMNSLKPEDTAVYYCAAEFNAYTPAGLWYTYYYWGQGTQVTVSS")
"high polyreactivity"
>>> value_observed("QVQLVESGGGLVQAGGSLRLSCAASGFIFYQYAMGWYRQAPGKERELVATISFRGGRTYYADSVKGRFTISRDNAKNTVYLQMNSLKPEDTAVYYCNAKRVSSRFYKWDYYWGQGTEVTVSS")
"high polyreactivity"

###

experiment: yeast display, Sf9 membrane polyspecificity reagent, FACS + sequencing; frameworks hold sequencing errors
readout.name: polyreactivity (PSR sort gate)

>>> value_observed("QVQLVESGGGLVQAGGSLRLSCAASGYIFTRNAMGWYRQAAGKERELVATISSRGGRTYYADSVKGRFTISRDNAKNTVYLQMNSLKPEDTAVYYCAATPWYRTRTYDYWGQGSQVTVSS")
"high polyreactivity"
>>> value_observed("QVQLVESGGGLVQAGGSLRLSCAASGFTFGWYAMGWYRPAPGKERELVAAISSTGGRTYYADSVKGRFTISRDNAKNTVYLQMNSLKPEDTAVYYCAAAYSYGTEYGYWGQGTQVTVSS")
"high polyreactivity"
>>> value_observed("QVQLVESGGGLVQAGGSLSLSCAASGSTFYNYAMGWYRQAPGKERELVASITWNGGSTYYADSVKGRFTISRDNAKNTVYLQMNSLKPEDTAVYYCAADWTWTYPYDYWGQGTQVTVSS")
"low polyreactivity"
>>> value_observed("QVQLVESGGGLVQAGGSLRLSCAASGSIFPWNAMGWYRQAPGKERELVAGINESGGSTYYADSVKGRFTISRDNAKNTVYLQMNSLKPEDTAVYYCAADGYPSVGDDYWGQGTQVTVSS")
"low polyreactivity"

// below: polyreactivity (PSR sort gate) requested for another sequence
Q. Please look up its polyreactivity (PSR sort gate): `QVQLVESGGGLFQAGGSHRLSCAASGSTFKQYAMGWYRQAPGKERELVAAIDRGGSTYYADSVKGRFTITRDNAKITVYLQMTSLKPEDTAVYYCAARFVQYRYAYDYWGQGTQVTVSS`
A. low polyreactivity

###

assay: yeast display, Sf9 membrane polyspecificity reagent, FACS + sequencing; frameworks hold sequencing errors
readout.name: polyreactivity (PSR sort gate)

Known polyreactivity (PSR sort gate) results, listed for orientation:
>>> value_observed("QVQLVESGGGLVQAGGSLRLSCAASGRPFVSYALGWYRQAPGKERELVAVITGGTGNTYYADSVKGRFTISRDNAKNTVYLQMNSLIPEDTAVYYCNARGGYYKFRYPLYYWGQVTQVTVSS")
"high polyreactivity"
>>> value_observed("QVQLVESGGGVVQAGGSLRLSCAASGSTFYAYAMGWYRQAPGKERELVAGISKRVGRTYYADSVKGRFTISRDNAKNTVYLQRNSLKPEDTAVYYCAAQFYLFYEYEYWGQGTQVTVSS")
"high polyreactivity"
>>> value_observed("QVQLVESGGGLVQAGGRLRLSCAASGITFKRYAMGWYRQAPRKERELVAAISDIGGRTYYADSVKGRFSISRDNAKNTVYLQMYSLKPEDTAVYYCAADYYSPVDWYYYWGQGTQVTVSS")
"high polyreactivity"
>>> value_observed("QVQLGESGGGLGQAGGSLSLSCAATGSIFPYNPMGWYRQAPGKERELVATINSRGGRTYYADSVKGRFTISRDNAKNTVYLQMNSLKPEDTAVYYCARYYSSALRYGYWGQGTQVTVSS")
"low polyreactivity"
>>> value_observed("QGQLVESGGGLVQAGGSLRLSCAASGFTFAGYARGWYRQAPGKERELVAAINRGGSTYYADSVKGRFTISRDNAKNTVYLQMNSLTPEDTAVYYCAARQEPGWYPDVWWEYDYWGQGTQVTVSS")
"low polyreactivity"
>>> value_observed("QVQLVESGGGLVQAGGSLRLSCAASGRIFYKYALGGYRQAPGKERELVAAISYSGGSTYYADSVKGRFTISRDNAKNTVYLQMKSLKPEDNAVYYCNAKPPFGVRSWGDYWGQGTQVTVSS")
"low polyreactivity"

Q. So what does the record say about polyreactivity (PSR sort gate) for `QVQLVESGGGLVQAGGSLRLSCAASGLTFQYYVMGSYRQAPGKERELVAAISSGGSTYYADSVKGRFTISRDNAKNTVYLQMNSLKPEDTAVYYCAAEAGYAYPLWPYTFPFEYWGQGTQVTVSS` ?
A. low polyreactivity

Q. I'd like to know its polyreactivity (PSR sort gate). The sequence in question is `QVQLQESGGLVQAGGSLRLSCAASGSISGRNVMGWYRQAPGKEREFVASITDGSSTNYADSVKGRVTISRDNAKNTVYLQMNSLKPKDTAVYYCAAYAQRAKSFGYWGRGTQVTVSS`
A. low polyreactivity

Q. // returns reported polyreactivity (PSR sort gate) for input `QVQLVESGGGFVQAGGSLRLSSAASGSTLPGYAMGSYRQAPGKERELVAGISTRGGNTYYADSVKGRFTISRDNAKNTVYLPMNSLKPEDTAVYYCAAGIPRQAYKFYWGQGTQVTVSS`
A. high polyreactivity

Q. Consider the sequence `QVQLVDSGGGLVQAGGSHRLSCAASGLTYHQYAMGWYRQAPGKERELVAAITSDGASTNYADSVKGRFTISRDNAKNTVYLQMISLKPEDTAVYYGAARRRSRQYRYDYWGQGTQVTVSS` and give its measured polyreactivity (PSR sort gate).
A. high polyreactivity

Q. Look at this sequence and give its reported polyreactivity (PSR sort gate). `QGQLVESGGGLVQAGGSLRLSCAASGSIFWDNVMGWSRQAPGKERELVADIDSWDGGSTYYADSVKGRFTISRDNAKNTVYLQMHSRKPEDTAVYYCNTDVLWWRGGDDFWGQGTQVTVSS`
A. low polyreactivity

Q. Using the record for `QVQLVESGGGLVQAGGSLRLSCAASGIIFRYYAMGWYRQAPGKEREFVAAINYSGGSTYYADSVKGRFTISRDNAKYSVYLLMNSLKPEDTAVYYCAARSYTYTAPIYGYWGQGTQVTVSS` , report its polyreactivity (PSR sort gate).
A. high polyreactivity

Q. Dear colleague, I am looking for the recorded polyreactivity (PSR sort gate) of the following sequence: `QVQLQESGGGLVQAGGSLLLSCAASGSISGPHVMGWYRQAPGKEREFVAAINVGANTYYADNVKGRFTISRDNAKNTVYLQMNSLKPEDTAVYYCAAVYYGDIGHEYWGQGTQVTVSC`
A. low polyreactivity

Q. Form field: reported polyreactivity (PSR sort gate) of `QVQLVESGGGLVQAGGSLRLSCAASGFTSRNYAMGWYSQARGKARELVAVFSKSGTSTYYADSVKGRFTISRDHAKNTVYLQMTSLKPEDTAVYYCSADTGHLSNSMDYWGQGTQVTVSS`
A. high polyreactivity

Q. Given the sequence `QVQLVESGGGLVQAGGSLRLSCAASGIIFSGYAMGWYRQAPGKERELVAAITGSGDITYYADSVKGRFTISRDNAKNTVYLQMNSLKPEDTAVYYCADVASSQYRAEEYNYWGQGTQVTVSS` , what is its reported polyreactivity (PSR sort gate)?
A. low polyreactivity

meta.source: the nanobody polyreactivity screen of Harvey et al. (2022)
